Data provenance: patent US20050131051A1

- experimental_target: dopamine transporter (DAT) (Rattus norvegicus)
- Construct: P2 membrane pellets were prepared by differential centrifugation from rat striatum; from tissue; host or cells: rat striatum (P2 membrane pellet / P2 synaptosomes)
- Sequence (P23977 whole entry): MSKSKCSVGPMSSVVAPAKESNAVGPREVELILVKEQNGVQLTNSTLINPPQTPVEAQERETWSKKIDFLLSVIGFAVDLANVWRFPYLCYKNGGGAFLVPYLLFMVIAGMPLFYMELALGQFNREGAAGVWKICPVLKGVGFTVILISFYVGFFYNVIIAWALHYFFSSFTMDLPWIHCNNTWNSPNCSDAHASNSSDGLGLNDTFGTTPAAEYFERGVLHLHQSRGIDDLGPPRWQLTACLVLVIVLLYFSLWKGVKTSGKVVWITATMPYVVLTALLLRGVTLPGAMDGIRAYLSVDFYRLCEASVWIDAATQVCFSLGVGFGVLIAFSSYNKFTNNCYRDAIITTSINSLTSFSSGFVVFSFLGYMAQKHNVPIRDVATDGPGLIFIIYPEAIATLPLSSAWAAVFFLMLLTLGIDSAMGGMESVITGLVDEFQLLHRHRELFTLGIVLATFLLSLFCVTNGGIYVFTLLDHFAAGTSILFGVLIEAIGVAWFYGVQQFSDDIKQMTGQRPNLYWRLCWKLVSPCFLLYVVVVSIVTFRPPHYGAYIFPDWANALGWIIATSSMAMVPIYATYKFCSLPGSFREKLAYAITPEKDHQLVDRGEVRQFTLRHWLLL
- test_protocol: [3H]mazindol binding assay
- test_settings: rat striatum membranes; mean ± standard error or range of 2-3 experiments; read-out: Ki (nM) [3H] Mazindol Binding
Can you tell me Ki for the items I'm about to list?

CCCCC1C(c2ccc(C)cc2)C2CCN1CC2 (single isomer, unassigned; (+)) [(+)-13, 2-Butyl-3-(4-methylphenyl)quinuclidine] | 343 nM

Shift focus to the following entry.
Kindly indicate its recorded Ki. Item: CCCCC1C(c2ccccc2)C2CCN1CC2 (racemic) [(±)-12, 2-Butyl-3-phenylquinuclidine]
210 nM
